Reference source for all entries: ChEMBL document CHEMBL2016551

Would you kindly list CC50 for each of these molecules?
- protocol notes: Cytotoxicity against human HuH7 cells
- Type: cell-based
- condition notes: Huh-7 cells
Answer with the value and then the unit.

Query :: Form field: reported CC50 of `O=C(O)/C=C/c1ccc(NC(=O)C2(NC(=O)c3ccc4c(C5CCCCC5)c5n(c4c3)CCCc3ncccc3-5)CCCC2)cc1`
Result :: 63 µM

Query :: Name the reported CC50 value associated with the molecule `O=C(O)/C=C/c1ccc(NC(=O)C2(NC(=O)c3ccc4c(C5CCCCC5)c5n(c4c3)CC(=O)Nc3cccnc3-5)CCCC2)cc1`
Result :: 45 µM

Query :: Recorded CC50 for `O=C(O)/C=C/c1ccc(NC(=O)C2(NC(=O)c3ccc4c(C5CCCCC5)c5n(c4c3)CCCc3ccccc3-5)CCCC2)cc1` , please?
Result :: 30 µM

* * *

- protocol notes: AUC in rat
- Type: ADME, organism-based
- condition notes: plasma
measure name: AUC (µM·h)
Unit µM·h implied. Number only.

Query :: Query: AUC; subject: `O=C(O)/C=C/c1ccc(NC(=O)C2(NC(=O)c3ccc4c(C5CCCCC5)c5n(c4c3)CCCc3ncccc3-5)CCCC2)cc1`
Result :: 1.7

* * *

- System: Hepatitis C virus
- protocol notes: Antiviral activity against Hepatitis C virus genotype 1b infected in human HuH7 cells by luciferase reporter gene analysis
- Type: functional, organism-based, Hepacivirus hominis
- condition notes: Huh-7
measure name: EC50 (nM)
A number alone suffices; assume nM.

Query :: Please look up its EC50: `O=C(O)/C=C/c1ccc(NC(=O)C2(NC(=O)c3ccc4c(C5CCCCC5)c5n(c4c3)CCCc3ocnc3-5)CCCC2)cc1`
Result :: 78

Query :: Entry `O=C(O)/C=C/c1ccc(NC(=O)C2(NC(=O)c3ccc4c(C5CCCCC5)c5n(c4c3)CCCc3ccccc3-5)CCCC2)cc1` has what EC50?
Result :: 14

Query :: Any idea what EC50 was measured for `Cc1nc2c(s1)CCCn1c-2c(C2CCCCC2)c2ccc(C(=O)NC3(C(=O)Nc4ccc(/C=C/C(=O)O)cc4)CCCC3)cc21` ?
Result :: 683

Query :: Please give the measured EC50 for this compound: `O=C(O)/C=C/c1ccc(NC(=O)C2(NC(=O)c3ccc4c(C5CCCCC5)c5n(c4c3)CCCc3nc[nH]c3-5)CCCC2)cc1`
Result :: 738

Query :: May I ask what EC50 has been recorded for `O=C(O)/C=C/c1ccc(NC(=O)C2(NC(=O)c3ccc4c(C5CCCCC5)c5n(c4c3)CCOc3ncccc3-5)CCCC2)cc1` ?
Result :: 21

Query :: Would you kindly share the measured EC50 for `O=C(O)/C=C/c1ccc(NC(=O)C2(NC(=O)c3ccc4c(C5CCCCC5)c5n(c4c3)CC(=O)Nc3cccnc3-5)CCCC2)cc1` ?
Result :: 12

* * *

- protocol notes: Inhibition of Hepatitis C virus NS5B RNA-dependent RNA polymerase
- Parameters: species or system Hepacivirus hominis
measure name: pIC50
By convention, pIC50 is the negative base-10 log of a molar concentration.

Query :: # input compound: `O=C(O)/C=C/c1ccc(NC(=O)C2(NC(=O)c3ccc4c(C5CCCCC5)c5n(c4c3)CCCc3occc3-5)CCCC2)cc1` ; wanted: its pIC50
Result :: 7.47

Query :: // lookup pIC50 for `O=C(O)/C=C/c1ccc(NC(=O)C2(NC(=O)c3ccc4c(C5CCCCC5)c5n(c4c3)CCCc3ncccc3-5)CCCC2)cc1`
Result :: 7.52

Query :: Would you kindly share the measured pIC50 for `O=C(O)/C=C/c1ccc(NC(=O)C2(NC(=O)c3ccc4c(C5CCCCC5)c5n(c4c3)CCCc3nc[nH]c3-5)CCCC2)cc1` ?
Result :: 6.64
